- assay.overview: Smoothness (MIU, MMD), KES-SE Friction Tester on artificial leather
- Assay type: physicochemical
- condition: 25° C., 0.1 ml on artificial leather, average of three
Assignment: determine reported MIU (mean frictional coefficient) for the given compounds.
Answers are plain numbers.

Example entries and their recorded answers appear below.
compound	observed.measurement
CC(CC(=O)OCC1CC2CC1C1CCCC21)CC(C)(C)C (centres unmarked)	0.31
CCCCCCCCCCC(CO)CCCCCCCC (centres unmarked) [Octyldodecanol, reference compound]	0.39
CCCCCCCCCCCCCCCCCC(=O)OC(CCCCCC)CCCCCCCCCCC(=O)OCC(CCCCCCCC)CCCCCCCCCC (centres unmarked) [Octyldodecyl stearoyloxy stearate, reference compound]	0.41
CCCCCCCCCCC(CO)CCCCCCCCCC [Decyldodecanol, reference compound]	0.40
CC(C)C(=O)OCC1CC2CC1C1CCCC21 (centres unmarked)	0.27
CC(C)CCCCCCCOC(=O)C(C)(C)C [Isodecyl neopentanoate, reference compound]	0.15
CCCCC(=O)OCC1CC2CC1C1CCCC21 (centres unmarked)	0.29
CC(C)(C)C(=O)OCC1CC2CC1C1CCCC21 (centres unmarked)	0.25

// for each compound below, give its MIU (mean frictional coefficient)
1. CC(C)CCCC(C)CCCC(C)CCCCC(C)CCCC(C)CCCC(C)C (centres unmarked) [Squalane, reference compound]
2. CC(C)CCCCCCCCCCCCCCCOC(=O)C(C)(C)C [Isostearyl neopentanoate, reference compound]
3. CC(C)(C)C(=O)OCC1CC2CC1C1CCC(COC(=O)C(C)(C)C)C21 (centres unmarked)

1: 0.40; 2: 0.27; 3: 0.28
